B1: glmS ribozyme (parent)
chain: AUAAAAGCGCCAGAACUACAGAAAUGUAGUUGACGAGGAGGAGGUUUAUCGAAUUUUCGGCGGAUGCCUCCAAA

variants of: B1; test: self-cleavage kobs at 40 uM GlcN6P; higher = faster cleavage; RNA array; details: with glucosamine-6-phosphate
Variants at the floor of the assay were thinned out.
Reported self-cleavage kobs at 40 uM GlcN6P is given for each of the following variants.
Readout Kind: self-cleavage kobs at 40 uM GlcN6P

> print(dat)
                       mutations  measured.value
 1                     A33U G59C     < 1e-05 s⁻¹
 2                     A64U C70G     < 1e-05 s⁻¹
 3                     A12U A15U    0.000433 s⁻¹
 4                     U45A C67A    0.000364 s⁻¹
 5                A12G C61A C70U     < 1e-05 s⁻¹
 6                A52G A53C U54A     < 1e-05 s⁻¹
 7  C8U A12C G40A U45G G60A G66U     < 1e-05 s⁻¹
 8                      C8G G29A     < 1e-05 s⁻¹
 9                     A39C G63U     < 1e-05 s⁻¹
10                G60C C67A C71U     < 1e-05 s⁻¹
11                     G32C G38C     < 1e-05 s⁻¹
12                     C58G G60U     < 1e-05 s⁻¹
13                     G40A G63A     < 1e-05 s⁻¹
14                     A53G U56A    0.000437 s⁻¹
15                     G41U U45A    8.05e-05 s⁻¹
16                C11U A15G C50G    5.89e-05 s⁻¹
17                     A33G C34A     < 1e-05 s⁻¹
18                C16U G32C G38C     < 1e-05 s⁻¹
19                     G40U A53G     0.00024 s⁻¹
20                A42U G62U C71G     < 1e-05 s⁻¹
21                     U54A C67U    0.000285 s⁻¹
22            A6G C11U A33U G60U     < 1e-05 s⁻¹
